Answer each item with its documented RP-LC retention time.
Experiment: gradient 5% acetonitrile 3 min, to 50% in 2 min, to 85% in 15 min, held 3 min, 100 µL/min
Conditions: column: Zorbax Extend-C18 2.1 x 50 mm; eluents: water / acetonitrile, 0.1% formic acid
Give bare numbers, in s.

Known RP-LC retention time results, listed for orientation:
Q: So what does the record say about RP-LC retention time for CCc1nc(-c2csc(S(=O)(=O)N3CCCC(C(=O)NCc4cc(C)ccc4C)C3)c2)no1 (stereo not given) ?
A: 1080

Q: So what does the record say about RP-LC retention time for COc1ccc(OC)c(NC(=O)C2c3ccccc3C(=O)N3CCc4ccccc4C23)c1 (stereo not given) ?
A: 903

Q: So what does the record say about RP-LC retention time for CCc1ccc(CN2C(=O)c3ccccc3C2C(=O)NCCCOC)cc1 (stereo not given) ?
A: 819

Q: So what does the record say about RP-LC retention time for COc1ccc(C(=O)Nc2cnc(N3CCCC3)nc2)cc1 ?
A: 691

Q: So what does the record say about RP-LC retention time for Cc1sc(-c2nc(-c3cccc(F)c3)no2)cc1S(=O)(=O)N1CCN(c2ccccn2)CC1 ?
A: 959

Batch request: RP-LC retention time for each of the following compounds.
1. CCOC(=O)C1CCN(C(=O)c2nc(N3CCCCC3)c3c(C)cc(C)nc3n2)CC1
2. O=C(C1CCN(S(=O)(=O)N2CCOCC2)CC1)N1CCC(c2nc(C3CCOCC3)no2)CC1
3. O=C(NC1CC1)c1c2c(nc3ccccc13)CCC2
4. COC(=O)c1cc2c(=O)n(-c3nc4cc(C)c(C)cc4s3)ccc2nc1C

A:
[595, 674, 566, 1420]

Q: So what does the record say about RP-LC retention time for O=C(Nc1cccc(Cl)c1)Nc1nccs1 ?
A: 870
